# Experimental System: D(2) dopamine receptor (Rattus norvegicus)
# Sequence (P61169 whole entry): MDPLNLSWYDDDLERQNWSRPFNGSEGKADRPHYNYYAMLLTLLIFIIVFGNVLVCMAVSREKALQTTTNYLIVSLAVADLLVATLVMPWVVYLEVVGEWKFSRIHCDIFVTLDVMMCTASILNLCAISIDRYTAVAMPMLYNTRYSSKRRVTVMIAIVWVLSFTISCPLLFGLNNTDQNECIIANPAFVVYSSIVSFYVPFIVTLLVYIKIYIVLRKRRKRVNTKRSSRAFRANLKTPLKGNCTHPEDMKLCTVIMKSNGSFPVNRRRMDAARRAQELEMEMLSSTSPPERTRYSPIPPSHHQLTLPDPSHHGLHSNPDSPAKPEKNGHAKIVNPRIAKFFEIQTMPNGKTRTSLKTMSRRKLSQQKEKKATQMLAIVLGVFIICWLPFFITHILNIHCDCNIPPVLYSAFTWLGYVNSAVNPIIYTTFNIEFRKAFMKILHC
# Assay Remarks: Binding affinity against Dopamine receptor D2 in rat striatum using [3H]spiperone
Reported log10 Ki values follow for various molecules
Assay Readout: log10 Ki (log10 of the value in nM)

| Molecule Smiles | log10 Ki |
| --- | --- |
| C1=C(c2ccc3ccccc3c2)CCN(CCCCc2ccncc2)C1 | 2.82 |
| C1=C(c2c[nH]c3ccccc23)CCN(CCCCc2ccncc2)C1 | 2.46 |
| C1=C(c2ccccc2)CCN(CCCCc2ccncc2)C1 | 1.84 |
| Clc1ccc(C2=CCN(CCCCc3ccncc3)CC2)cc1 | 2.66 |
| C1=C(c2cccs2)CCN(CCCCc2ccncc2)C1 | 2.70 |
| C1=C(c2ccccn2)CCN(CCCCc2ccncc2)C1 | 2.51 |
| Fc1ccc(C2=CCN(CCCCc3ccncc3)CC2)cc1 | 3.73 |
| Cc1ccc(C2=CCN(CCCCc3ccncc3)CC2)cc1 | 2.98 |
| COc1ccc(C2=CCN(CCCCc3ccncc3)CC2)cc1 | 3.21 |
